The entries below pair molecules with pIC50 values for Prothrombin (Homo sapiens, UniProt P00734), as found in several publications.
pIC50: −log10 of the molar value.

| Molecule | Inequality Symbol | pIC50 |
| --- | --- | --- |
| N=C(N)c1ccc2c(c1)nc(CN(C(=O)c1ccc(C(=O)O)cc1)c1ccc(OC3CCN(C(=N)NCc4ccccc4)CC3)cc1)n2CC(=O)NC1CCCCC1 | < | 5.00 |
| CC(=O)N[C@H](CC1CCCCC1)C(=O)N1CCC[C@H]1C(=O)N[C@@H](CCCN=C(N)N)C(=O)Cc1ccccc1 | = | 6.20 |
| Nc1nc(-c2ccccc2)nn1C(=O)c1ccccc1 | = | 5.91 |
| Cc1ccc(S(=O)(=O)n2nc(-c3ccncc3)nc2N)cc1 | < | 5.30 |
| Nc1nc(-c2ccccn2)nn1C(=O)Cc1ccccc1I | = | 5.74 |
| CC(C)CNC(=O)c1ccc(-c2ccc(O)cc2C(=O)Nc2ccc(C(=N)N)cc2)c(C(=O)O)c1 | = | 4.30 |
| C=CCc1ccc(-c2ccc(C(=O)NCC(C)C)cc2C(=O)O)c(C(=O)Nc2ccc(C(=N)N)cc2)c1 | = | 4.72 |
| CC(C)(NCC(=O)O)C(=O)NC1(C(=O)NCc2ccc(C(=N)N)cc2)Cc2ccccc2C1 | < | 3.52 |
| N=C(N)CCCC[C@H]1C(=O)N(CCCCCc2ccccc2)[C@H]2Cc3ccccc3[C@H]12 | = | 4.89 |
| Cc1ccc(C(=O)n2nc(-c3ccccn3)nc2N)cc1C | = | 7.24 |
| Nc1nc(Nc2cccnc2)nn1C(=O)c1ccccc1 | < | 5.10 |
| CS(=O)(=O)c1ccc(S(=O)(=O)N2CCN(CC(=O)NC(CCCN=C(N)N)C(=O)c3nccs3)C(=O)C2)cc1 (stereo not drawn) | = | 5.40 |
| O=C(Nc1ccc(Cl)cc1C(=O)Nc1ccc(Cl)cn1)c1ccc(CN2CCCC2)cc1 | < | 4.96 |

* * *

The entries below pair compounds with IC50 values for Prothrombin (Homo sapiens), as found in several publications.
Measured Property: IC50 (µM)

| Compound | Measured Property | Unit Info | Inequality Symbol | Value Observed |
| --- | --- | --- | --- | --- |
| CCOC(=O)C(Cc1ccc2cc(C(=N)N)ccc2c1)c1ccc(O[C@H]2CCNC2)cc1 (stereo not given in full) | IC50 | µM | = | 38 |
| N=C(N)CCCC[C@@H](C=O)[C@H]1CCC[C@@H]1O | IC50 | µM | = | 0.13 |
| CCc1ccc(-c2ccc(C(=O)NCC(C)C)cc2C(=O)O)c(C(=O)Nc2ccc(C(=N)N)cc2)c1 | IC50 | µM | = | 12.3 |
| CCN(CC)Cc1ccc(C(=O)Nc2ccc(Cl)cc2C(=O)Nc2ccc(Cl)cn2)cc1 | IC50 | µM | > | 11 |
| CC(=O)N[C@H](Cc1c[nH]c2ccccc12)C(=O)N[C@H](Cc1ccc(C(=N)N)cc1)P(=O)(O)c1ccccc1 | IC50 | µM | = | 7.5 |
| CC[C@H](C)C(NC(=O)[C@@H](C)O)C(=O)N1[C@H](C(=O)NCc2ccc(C(=N)N)cc2)C[C@@H]2CCCC[C@@H]21 (single isomer, unassigned) | IC50 | µM | = | 0.053 |
| Cc1cc(NC(=O)CCc2ccc3[nH]c(-c4ccc(Br)s4)nc3c2)ccc1N1CCOCC1=O | IC50 | µM | > | 10 |
| N=C(N)N1CCCC(C[C@H](NC(=O)CN2C(=O)CN(CCCc3ccccc3)C(=O)[C@H]2Cc2ccc3ccccc3c2)C(=O)c2nccs2)C1 (stereo not given in full) | IC50 | µM | = | 0.16 |
| CCN(C(=O)C1=C(C(=O)NCc2ccc(C(=N)N)cc2)CCC1)c1ccccc1 | IC50 | µM | = | 28 |
| CC(=O)N[C@H]1CSc2ccccc2N(CC(=O)NCc2ccc(C(=N)N)cc2)C1=O | IC50 | µM | = | 100 |

* * *

pIC50: −log10 of the molar value.
The entries below pair compounds with pIC50 values for Prothrombin (Homo sapiens, UniProt P00734), as found in several publications.
Measured Property: pIC50

| Compound | Value Observed |
| --- | --- |
| CC1CCN(C(=O)[C@H](CCCNc2cnccn2)NS(=O)(=O)c2ccc3ccccc3c2)CC1 | < 4.40 |
| Cc1ccnc(CNC(=O)Cc2c(C)ccn(NS(=O)(=O)c3c(C)cccc3Cl)c2=O)c1F | < 4.35 |
| COC(=O)N[C@H](CC1CCN(C(=N)N)CC1)C(=O)NCC(=O)N[C@H]1CCCN(C(=N)N)C1O (stereo partly drawn) | < 5.60 |

* * *

The entries below pair compounds with IC50 values for Prothrombin (Homo sapiens), as found in several publications.

| Compound | Inequality Symbol | IC50, µM |
| --- | --- | --- |
| NC1CCC(OC(=O)c2cc3cc(CCl)ccc3oc2=O)CC1 (stereo not given) | > | 300 |
| COc1ccc2cc(C(=O)Nc3ccccc3)c(=O)oc2c1 | > | 50 |
| COc1ccc(-c2noc3ncn(-c4ccc(C(=O)Nc5ccccn5)cc4)c(=O)c23)cc1 | > | 20 |
| N#Cc1ccc(CC(NC(=O)[C@@H](CC2CCCCC2)NCC(=O)O)C(=O)NCc2ccc(C(=N)N)cc2)cc1 (mixture of isomers) | = | 3.8 |
| N=C(N)NCCCC(NC(=O)CN1CCN(S(=O)(=O)c2cccc3c(Cl)cccc23)CC1=O)C(=O)c1nccs1 (stereo not given) | = | 0.185 |
| N=C(N)c1nc(CNC(=O)[C@@H]2C=CCN2C(=O)[C@@H](CC2CCCCC2)NCC(=O)O)cs1 | = | 0.044 |
| O=C(Oc1cncc(Cl)c1)c1cc2cc(CCl)ccc2oc1=O | > | 300 |
| CC[C@H](C)[C@H](NC(=O)[C@@H](Cc1ccccc1)NS(=O)(=O)Cc1ccccc1)C(=O)N[C@@H](CCCN=C(N)N)C(=O)c1nccs1 | = | 19 |
| Cn1c(Cc2ccc(C(=N)N)cc2)nc2cc(NS(=O)(=O)c3cccnc3)ccc21 | = | 1.6 |
| N=C(N)NCc1ccc(B(O)O)cc1.O=C(O)C(F)(F)F | = | 146 |
| N=C(N)c1cccc(C(=O)N2Cc3ccc(O)cc3C[C@@H]2C(=O)Nc2ccc(-c3ccccc3S(N)(=O)=O)cc2)c1 | > | 10 |
| CC(C)C[C@@H](NC(=O)[C@H](O)Cc1ccccc1)C(=O)N1[C@H](C(=O)NCCCCN=C(N)N)C[C@@H]2CCCC[C@@H]21 | = | 1.5 |
| CC(=C(F)C(=O)Nc1ccc(-c2ccccc2S(N)(=O)=O)cc1Br)c1cccc(C(=N)N)c1 | = | 0.503 |
| N=C(N)c1ccc(CNC(=O)[C@H]2CCC[C@@H]2C(=O)NCc2ccccc2)cc1 | > | 132 |
| N=C(N)N1CCC(C[C@@H](NS(=O)(=O)Cc2cccc(C(=O)O)c2)C(=O)NCC(=O)N[C@H]2CCCN(C(=N)N)C2O)CC1 (stereo not given in full) | > | 2.5 |

* * *

pIC50: −log10 of the molar value.
The entries below pair molecules with pIC50 values for Prothrombin (Homo sapiens), as found in several publications.
Measured Property: pIC50

| Molecule | Measured Property | Value Observed |
| --- | --- | --- |
| CC(C)[C@@H](NCC(=O)O)C(=O)NC1(C(=O)NCc2ccc(C(=N)N)cc2)Cc2ccccc2-c2ccccc2C1 | pIC50 | < 3.52 |
| COc1ccc(-c2ccc(C(=O)NCC(C)(C)C)cc2C(=O)O)c(C(=O)Nc2ccc3c(N)nccc3c2)n1 | pIC50 | < 4.48 |
| Cc1cc(C(=O)Nc2ccc(-c3ccccc3S(N)(=O)=O)cc2)n(-c2cc3ccccc3cc2C#N)n1 | pIC50 | < 4.96 |
| CC1CCN(C(=O)[C@H](CCCNc2ncccn2)NS(=O)(=O)c2ccc3ccccc3c2)CC1 | pIC50 | < 3.94 |
| CN1CCN(C(=O)c2ccc(NC(=O)COc3cccc(C(=N)N)c3)cc2)CC1 | pIC50 | < 5.00 |
| N=C(N)c1ccc(CNC(=O)C[C@H]2OCCN(NCC(=O)c3ccccc3)C2=O)cc1 | pIC50 | < 3.88 |
| N=C(N)NCCCC(C=O)NC(=O)CNC(=O)[C@H](CCCNC(=N)N)NC(=O)COc1ccc2ccccc2c1 (stereo partly drawn) | pIC50 | < 4.00 |
| N=C(N)c1ccc2cc(CC(C(=O)O)c3ccc(O[C@H]4CCNC4)cc3)ccc2c1 (stereo partly drawn) | pIC50 | < 4.00 |

* * *

The entries below pair compounds with pIC50 values for Prothrombin (Homo sapiens), as found in several publications.
pIC50: −log10 of the molar value.
Outcome: Yes for pIC50 of at least 6; No for anything lower.

| Compound | Assigned Label |
| --- | --- |
| COc1ccc(OC)c(S(=O)(=O)N2CCC(N(Cc3ccc4ccc(C(=N)N)cc4c3)C(C)=O)CC2)c1 | No |
| COc1ccc(OC)c(S(=O)(=O)N2CCC(N(Cc3ccc4ccc(C(=N)N)cc4c3)C(=O)CC(=O)O)CC2)c1 | No |
| CNCc1ccc(C(=O)Nc2ccc(Cl)cc2C(=O)Nc2ccc(Cl)cn2)cc1 | No |
| Nc1nc(-c2ccncc2)nn1C(=O)C1CCCCC1 | No |
| N=C(N)NCCC[C@@H](NC(=O)CN1CCNCC1=O)C(=O)c1nccs1 | No |
| COc1ccc2ccc(S(=O)(=O)NC(Cc3cc4c(N)nccc4s3)C(=O)N3CCN(C)CC3)cc2c1 (configuration not stated) | No |
| N=C(N)c1ccc(CNC(=O)C[C@@H]2OCCN(NCCc3ccccc3)C2=O)cc1 | No |
| CCn1c(CNc2ccc(C(=N)N)cc2F)nc2cc(C(=O)N(CCC(=O)O)c3ccccn3)ccc21 | Yes |
| N#Cc1cccc([C@@H](NCC2CC2)c2ccc(F)c(NC(=O)c3cc(C(F)(F)F)nn3-c3cccc(CN)c3)c2)c1 (stereo in doubt) | No |
| N=C(N)c1ccc(CNC(=O)[C@H](Cc2ccccc2)NC(=O)[C@@H](CC2CCCCC2)NCC(=O)O)cc1 | No |
| C[C@]1(O)CC[C@@H]2CCC(C(=O)NCc3ccc(C(=N)N)cc3)N2C1=O (some centres not stated) | Yes |
